The reported numbers originate from patent US10995091B2.

Each item that follows carries a reported Ki.
- target_of_assay: Human CXCR4 transfected HEK293 cells (Homo sapiens, UniProt P61073)
- Sequence (P61073 whole entry): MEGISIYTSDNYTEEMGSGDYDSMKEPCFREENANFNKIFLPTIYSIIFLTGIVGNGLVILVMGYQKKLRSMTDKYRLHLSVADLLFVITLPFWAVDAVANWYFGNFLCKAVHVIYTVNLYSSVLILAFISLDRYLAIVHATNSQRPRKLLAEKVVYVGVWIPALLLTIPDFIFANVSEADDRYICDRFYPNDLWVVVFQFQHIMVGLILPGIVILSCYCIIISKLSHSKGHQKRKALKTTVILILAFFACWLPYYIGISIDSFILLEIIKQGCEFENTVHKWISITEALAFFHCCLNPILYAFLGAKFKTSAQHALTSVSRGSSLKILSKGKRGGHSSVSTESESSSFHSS
- method: CXCR4 functional calcium assay (calcium flux FLIPR, antagonism of SDF1 response)
- measurement_context: CXCR4 functional activity, antagonism of SDF1 (EC50 concentration), read-out: CXCR4 fKi
- Description: The functional activity of test compounds was routinely tested by measuring the ability of compounds to antagonize CXCR4 activity in a dose dependent manner, using a calcium flux Fluorescent Imaging Plate Reader FLIPR assay. […] A combined agonist/antagonist protocol was used to measure changes in intracellular calcium concentration. Compound (antagonist) was added to the cell plate using a Fluorometric Imaging Plate Reader (FLIPR) (Molecular Devices, Sunnyvale, Calif., USA). […]

{"columns": ["compound", "target_of_assay", "property_measured", "reported_measurement"],
 "data": [
  ["CC(C)N1CCC(N2CCCN(c3cccc(C(=O)N[C@H]4CCOC4)n3)CC2)CC1 [Example 18]", "Human CXCR4 transfected HEK293 cells (Homo sapiens, UniProt P61073)", "Ki", "100 to 500 nM"],
  ["OCc1cccc(N2CCCN(C3CCN(Cc4ccccc4Cl)CC3)CC2)n1 [Example 260]", "Human CXCR4 transfected HEK293 cells (Homo sapiens, UniProt P61073)", "Ki", "500 to 1000 nM"],
  ["CCCCc1nc(-c2cccc(N3CCCN(C4CCN(C(C)C)CC4)CC3)n2)no1 [Example 157]", "Human CXCR4 transfected HEK293 cells (Homo sapiens, UniProt P61073)", "Ki", "100 to 500 nM"],
  ["CC(C)N1CCC(N2CCCN(c3cccc(C(=O)N[C@@H]4CCOC4)n3)CC2)CC1 [Example 19]", "Human CXCR4 transfected HEK293 cells (Homo sapiens, UniProt P61073)", "Ki", "100 to 500 nM"],
  ["Cc1nc(-c2cccc(N3CCCN(C4CCN(C5CCCC5)CC4F)CC3)n2)[nH]c1C1CC1 (centres unmarked) [Example 214]", "Human CXCR4 transfected HEK293 cells (Homo sapiens, UniProt P61073)", "Ki", "100 to 500 nM"],
  ["COc1ccc(C(=O)NCC2CC2)nc1N1CCCN(C2CCN(Cc3ccccc3Cl)CC2)CC1 [Example 270]", "Human CXCR4 transfected HEK293 cells (Homo sapiens, UniProt P61073)", "Ki", "100 to 500 nM"],
  ["CC(C)N1CCC(N2CCCN(c3cccc(C(=O)NCCc4ccccn4)n3)CC2)CC1 [Example 46]", "Human CXCR4 transfected HEK293 cells (Homo sapiens, UniProt P61073)", "Ki", "20 to 100 nM"],
  ["CC(C)N1CCC(N2CCCN(c3cccc(-c4nc5cc(F)c(F)cc5[nH]4)n3)CC2)CC1 [Example 145]", "Human CXCR4 transfected HEK293 cells (Homo sapiens, UniProt P61073)", "Ki", "< 20 nM"]
]}

[ask] Suppose we examine the compound O=C(Nc1ccncc1)c1cccc(N2CCC3CCCC(C2)N3C2CCN(Cc3ccccc3Cl)CC2)n1 (centres unmarked) [Example 218] ; what Ki value has been reported?
[reply] 100 to 500 nM

[ask] Suppose we examine the compound c1cc(NCCNC2CCN(C3CCCC3)C2)nc(-c2ncc(C3CC3)[nH]2)c1 (centres unmarked) [Example 233] ; what Ki value has been reported?
[reply] 500 to 1000 nM

[ask] Suppose we examine the compound CC(C)N1CCC(N2CCCN(c3cccc(C(=O)NCc4cccnc4)n3)CC2)CC1 [Example 34] ; what Ki value has been reported?
[reply] < 20 nM

[ask] Suppose we examine the compound Cc1nc(-c2cccc(N3CCCN(C4CCN(C(C)C)CC4)CC3)n2)[nH]c1C1CC1 [Example 121] ; what Ki value has been reported?
[reply] < 20 nM
